Collected IC50 values appear next to each entry.
target: cloned human MC4R (Homo sapiens); construct: made in house; host or cells: Hi5 insect cells (baculovirus infection); membrane preparation; assay: Membrane binding assay: competitive inhibition of [125I]NDP-α-MSH binding; conditions: read-out: MC4R IC50

[
  {
    "compound": "CCc1ccc(CN2CCN(C(=O)[C@@H](N)Cc3ccc(OCc4ccccc4)cc3)CC2)s1",
    "value.observed": "> 3 µM"
  },
  {
    "compound": "Cc1ccc(-c2ccc(C[C@H](N)C(=O)N3CCN(Cc4cccc(Cl)c4Cl)CC3)cc2)cc1",
    "value.observed": "< 1.5 µM"
  }
]

Looking up CCCCCCCCOc1ccc(CN2CCN(C(=O)[C@@H](N)Cc3ccc(OCc4ccccc4)cc3)CC2)cc1 , I see its IC50 listed as < 1.5 µM

Looking up CC(CCOc1ccc(C[C@H](N)C(=O)N2CCN(Cc3cccc(Cl)c3Cl)CC2)cc1)c1ccccc1 (some centres unmarked) , I see its IC50 listed as < 1.5 µM

Looking up N[C@@H](Cc1ccc(OCc2ccccc2)cc1)C(=O)N1CCN(Cc2cn(Cc3ccccc3)c3ccccc23)CC1 , I see its IC50 listed as < 1.5 µM

====

Collected pIC50 values appear next to each entry.
Target: cloned human MC4R (Homo sapiens, UniProt P32245)
Construct: made in house; host or cells: Hi5 insect cells (baculovirus infection); membrane preparation
Sequence (P32245 whole entry): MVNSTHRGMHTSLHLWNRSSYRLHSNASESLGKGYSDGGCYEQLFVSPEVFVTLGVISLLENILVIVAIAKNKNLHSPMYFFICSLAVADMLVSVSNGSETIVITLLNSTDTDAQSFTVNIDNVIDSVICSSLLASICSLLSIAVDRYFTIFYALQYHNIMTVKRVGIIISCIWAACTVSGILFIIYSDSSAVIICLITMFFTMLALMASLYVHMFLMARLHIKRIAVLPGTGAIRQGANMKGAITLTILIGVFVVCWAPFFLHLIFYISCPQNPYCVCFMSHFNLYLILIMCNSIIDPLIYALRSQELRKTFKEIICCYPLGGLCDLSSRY
Assay: Membrane binding assay: competitive inhibition of [125I]NDP-α-MSH binding
Settings: read-out: MC4R IC50
Description: Hi5 cells are infected using the following protocol: Cells at a density of 1×10^6 cells/mL are spun down at 1000 rpm (Beckman GS-6KR centrifuge) for 10 minutes. Cells are resuspended in 10% of their original volume in a sterile 50 mL conical centrifuge tube wrapped with aluminum foil. […] Protein content is determined (Bradford, Bio-Rad Protein Assay). […] Dose-response curves are fitted by […] analyses and IC50 values are calculated using ExcelFit.
pIC50: −log10 of the molar value.

For orientation, consider the following solved cases.
[
  {
    "structure.smiles": "N[C@@H](Cc1ccc(OCc2ccccc2)cc1)C(=O)N1CCN(Cc2c(F)cccc2F)CC1",
    "target": "cloned human MC4R (Homo sapiens, UniProt P32245)",
    "value.observed": "< 5.52"
  },
  {
    "structure.smiles": "N[C@@H](Cc1ccc(OCc2cc3c(cc2[N+](=O)[O-])OCO3)cc1)C(=O)N1CCN(Cc2cccc(Cl)c2Cl)CC1",
    "target": "cloned human MC4R (Homo sapiens, UniProt P32245)",
    "value.observed": "< 5.52"
  },
  {
    "structure.smiles": "CCCCCCCN1CCCN(C(=O)[C@@H](N)Cc2ccc(OCc3ccccc3)cc2)CC1",
    "target": "cloned human MC4R (Homo sapiens, UniProt P32245)",
    "value.observed": "< 5.52"
  }
]

Looking up N[C@@H](Cc1ccc(OCc2ccccc2)cc1)C(=O)N1CCN(Cc2ccc(/C=C/c3ccccc3)cc2)CC1 , I see its pIC50 listed as > 5.82

====

target: cloned human MC4R (Homo sapiens); construct: made in house; host or cells: Hi5 insect cells (baculovirus infection); membrane preparation; experiment: Membrane binding assay: competitive inhibition of [125I]NDP-α-MSH binding; settings: at 10 μM; [125I]NDP-α-MSH displacement; read-out: Displacement Rate (%) (at 10 μM)
reported.property: inhibition at 10 µM

For orientation, consider the following solved cases.
[
  {
    "compound": "CC(=O)c1cccc(-c2ccc(C[C@H](N)C(=O)N3CCN(Cc4cccc(Cl)c4Cl)CC3)cc2)c1 [Example 328]",
    "inhibition at 10 µM": "71 to 90%"
  },
  {
    "compound": "N[C@@H](Cc1ccc(OCc2ccccc2)cc1)C(=O)N1CCN(CCCc2ccccc2)CC1 [Example 147]",
    "inhibition at 10 µM": "35 to 70%"
  },
  {
    "compound": "N[C@@H](Cc1ccc(OCc2ccccc2)cc1)C(=O)N1CCCN(Cc2cc(OCc3ccccc3)cc(OCc3ccccc3)c2)CC1 [Example 12]",
    "inhibition at 10 µM": "91 to 100%"
  },
  {
    "compound": "Cc1cccc(CN2CCCN(C(=O)[C@@H](N)Cc3ccc(OCc4ccccc4)cc3)CC2)n1 [Example 69]",
    "inhibition at 10 µM": "35 to 70%"
  },
  {
    "compound": "N[C@@H](Cc1ccc(OCc2ccccc2)cc1)C(=O)N1CCCN(CCCc2ccccc2)CC1 [Example 42]",
    "inhibition at 10 µM": "71 to 90%"
  },
  {
    "compound": "N[C@@H](Cc1ccc(OCc2ccccc2)cc1)C(=O)N1CCCN(Cc2cccc(Oc3cccc(C(F)(F)F)c3)c2)CC1 [Example 16]",
    "inhibition at 10 µM": "91 to 100%"
  }
]

Would you kindly look at the next entry?
Looking up N[C@@H](Cc1ccc(OCc2ccccc2)cc1)C(=O)N1CCN(Cc2cccc3ccccc23)CC1 [Example 127] , I see its inhibition at 10 µM listed as 71 to 90%

====

molecular target: cloned human MC4R (Homo sapiens, UniProt P32245); construct: made in house; host or cells: Hi5 insect cells (baculovirus infection); membrane preparation; experiment: Membrane binding assay: competitive inhibition of [125I]NDP-α-MSH binding; conditions: at 10 μM; [125I]NDP-α-MSH displacement; read-out: Displacement Rate (%) (at 10 μM)
reported.property: inhibition at 10 µM

For orientation, consider the following solved cases.
[
  {
    "compound": "CC1CCC(N2CCCN(C(=O)[C@@H](N)Cc3ccc(OCc4ccccc4)cc3)CC2)CC1 (some centres unmarked) [Example 74]",
    "target": "cloned human MC4R (Homo sapiens, UniProt P32245)",
    "inhibition at 10 µM": "35 to 70%"
  },
  {
    "compound": "N[C@@H](Cc1ccc(OCc2ccccc2)cc1)C(=O)N1CCN(Cc2cc(C(F)(F)F)cc(C(F)(F)F)c2)CC1 [Example 101]",
    "target": "cloned human MC4R (Homo sapiens, UniProt P32245)",
    "inhibition at 10 µM": "91 to 100%"
  },
  {
    "compound": "N[C@@H](Cc1ccc(OCc2ccccc2)cc1)C(=O)N1CCCN(Cc2ccc(Cl)cc2Cl)CC1 [Example 52]",
    "target": "cloned human MC4R (Homo sapiens, UniProt P32245)",
    "inhibition at 10 µM": "35 to 70%"
  },
  {
    "compound": "N[C@@H](Cc1ccc(OCc2ccccc2)cc1)C(=O)N1CCN(Cc2ccccc2C(F)(F)F)CC1 [Example 94]",
    "target": "cloned human MC4R (Homo sapiens, UniProt P32245)",
    "inhibition at 10 µM": "91 to 100%"
  },
  {
    "compound": "COc1ccc(CCC(C)N2CCN(C(=O)[C@@H](N)Cc3ccc(OCc4ccccc4)cc3)CC2)cc1 (some centres unmarked) [Example 132]",
    "target": "cloned human MC4R (Homo sapiens, UniProt P32245)",
    "inhibition at 10 µM": "35 to 70%"
  },
  {
    "compound": "N[C@@H](Cc1ccc(OCc2ccccc2)cc1)C(=O)N1CCN(C2CCCC2)CC1 [Example 158]",
    "target": "cloned human MC4R (Homo sapiens, UniProt P32245)",
    "inhibition at 10 µM": "35 to 70%"
  }
]

Observed inhibition at 10 µM, cloned human MC4R (Homo sapiens, UniProt P32245), CC(C)N1CCN(C(=O)[C@@H](N)Cc2ccc(OCc3ccccc3)cc2)CC1 [Example 143] : 35 to 70%

Observed inhibition at 10 µM, cloned human MC4R (Homo sapiens, UniProt P32245), N[C@@H](Cc1ccc(-c2ccc(Cl)cc2)cc1)C(=O)N1CCN(Cc2cccc(Cl)c2Cl)CC1 [Example 298] : 91 to 100%

Observed inhibition at 10 µM, cloned human MC4R (Homo sapiens, UniProt P32245), N[C@@H](Cc1ccc(-c2ccc3ccccc3c2)cc1)C(=O)N1CCN(Cc2cccc(Cl)c2Cl)CC1 [Example 293] : 91 to 100%

Observed inhibition at 10 µM, cloned human MC4R (Homo sapiens, UniProt P32245), Nc1cccc(-c2ccc(C[C@H](N)C(=O)N3CCN(Cc4cccc(Cl)c4Cl)CC3)cc2)c1 [Example 333] : 71 to 90%

Observed inhibition at 10 µM, cloned human MC4R (Homo sapiens, UniProt P32245), N[C@@H](Cc1ccc(-c2ccc(C(F)(F)F)cc2)cc1)C(=O)N1CCN(Cc2cccc(Cl)c2Cl)CC1 [Example 304] : 91 to 100%

Observed inhibition at 10 µM, cloned human MC4R (Homo sapiens, UniProt P32245), Cc1cccc(-c2ccc(C[C@H](N)C(=O)N3CCN(Cc4cccc(Cl)c4Cl)CC3)cc2)c1 [Example 318] : 91 to 100%

Observed inhibition at 10 µM, cloned human MC4R (Homo sapiens, UniProt P32245), CCc1ccc(CN2CCCN(C(=O)[C@@H](N)Cc3ccc(OCc4ccccc4)cc3)CC2)s1 [Example 45] : 35 to 70%

Observed inhibition at 10 µM, cloned human MC4R (Homo sapiens, UniProt P32245), N[C@@H](Cc1ccc(OCc2ccccc2)cc1)C(=O)N1CCCN(Cc2ccc(C(F)(F)F)cc2)CC1 [Example 25] : 91 to 100%
